B1: ANKRD40 (parent)
chain: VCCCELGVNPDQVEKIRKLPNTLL

variants of: B1; assay: protein stability index of a GFP-peptide fusion (GPS, HEK-293T) (PSI 1-6); higher = more stable; conditions: c terminus: a fixed tail appended;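 note: lentivirally expressed fusions sorted by FACS into six bins by GFP to DsRed ratio, PSI derived from sequencing read proportions per bin multiplied by bin number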
Listed variants paired with reported protein stability index
Respond using a number only.

Some solved entries appear below for comparison.
var: N9Y
reported measurement: 1.78
//
var: N21L
reported measurement: 1.94
//
var: L23N
reported measurement: 2.05
//
var: V1D
reported measurement: 3.1
//
var: I16E
reported measurement: 3.09

Let us move to another entry and its protein stability index.
Task: Which protein stability index reading was recorded for the variant T22Q ?
Output: 1.63
